Target: T1, MUT-4G (Caenorhabditis elegans, UniProt Q09487 172-535, N318S;H319N;Q322E)
T1 sequence: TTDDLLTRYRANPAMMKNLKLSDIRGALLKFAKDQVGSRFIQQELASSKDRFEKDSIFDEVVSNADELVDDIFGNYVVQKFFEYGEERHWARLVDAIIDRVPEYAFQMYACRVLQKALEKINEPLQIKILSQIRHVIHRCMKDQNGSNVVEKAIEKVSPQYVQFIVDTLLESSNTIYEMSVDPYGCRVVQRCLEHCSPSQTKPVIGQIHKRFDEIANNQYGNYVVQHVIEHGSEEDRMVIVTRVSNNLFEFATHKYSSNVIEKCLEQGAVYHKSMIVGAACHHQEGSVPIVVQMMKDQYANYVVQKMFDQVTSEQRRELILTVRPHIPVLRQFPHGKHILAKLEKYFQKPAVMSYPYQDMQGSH
Test: fluorescence polarization
measurement name: pKd
Formally, pKd is defined as -log10 of the concentration c, with c in mol/L.

Please review the entries below; each comes with its answer.
> print(dat)
                          binder  measurement.name  measured
1  UGUAGAUA (ssRNA) [PBE-5G FAM]               pKd      7.53
2  UGUACAUA (ssRNA) [PBE-5C FAM]               pKd      5.87
3  UGUAUAUA (ssRNA) [PBE-5U FAM]               pKd      6.11

Give pKd for UGUAAAUA (ssRNA) [PBE-5A FAM]
6.62
